Assay: NCI Yeast Anticancer Drug Screen. Data for the wt1 strain (AID 149);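 note: 0% = growth of vehicle-treated wt1 cultures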
Conditions: S. cerevisiae wt1 strain (SPY 50644) growth inhibition; at 1.2 µM; active compounds read high
About 79,000 compounds went through this panel and 15% of them were active in at least one assay; those are over-represented in the sample as a whole.

molecule | output-unit | growth inhibition
Cc1ccc(CNc2ccc(Br)cc2)cc1 | % | -29
CCOC(=O)C1=C(C)NC(C)=C(C(=O)OCC)C1c1ccccc1Cl | % | -8
O=S(=O)(N/N=C/c1cccc(Cl)c1)c1ccccc1 | % | 0
S=c1[nH]c2c(Cl)c(Cl)c(Cl)c(Cl)c2[nH]1 | % | 16
NC(N)=N/N=C/c1cc(Cl)cc(Cl)c1O | % | -14
CC1(C)C(C=O)=CCC1CC(N)=O (configuration not stated) | % | -1
Nc1ccc2c(=S)c3ccccc3[nH]c2c1 | % | 9
Cc1ccc(Nc2n[nH]c(=S)s2)cc1 | % | -21
Cc1ccc(Nc2c3c(c(C#N)c4nc5ccccc5n24)CCCC3)cc1 | % | 7
Cc1cc(C)c(N2C(=O)CC(Sc3ccccc3N)C2=O)c(C)c1 (configuration not stated) | % | -53
CC(=O)CC(=O)/C=C/c1cccs1 | % | -25
COc1ccc(/C=C(\NC(=O)c2ccccc2)C(=O)NN(C)c2ccnc3cc(Cl)ccc23)cc1OC | % | -41

====

Assay: NCI Yeast Anticancer Drug Screen. Data for the rad18 strain (AID 177)
Conditions: S. cerevisiae rad18 mutant growth inhibition; at 3.7 µM; active compounds read high
This is part of a sample that, as a whole, favours compounds with a hit. Of some 79,000 tested, about 15% had one in any assay.

compound | output-unit | growth inhibition
O=C(/C=C/c1cccc(Br)c1)c1ccc(Cl)cc1 | % | -13
CCOc1ccc(C(=O)CCC(=O)O)c(C)c1 | % | -4
CCCCCC#CCOC(=O)C(=[N+]=[N-])P(=O)(c1ccccc1)c1ccccc1 | % | 8
Cc1c2cc[n+](CCN3CCCCC3)cc2c(C)c2c1[nH]c1ccc(O)cc12 | % | -5
COc1ccc(/C=C2\SC(=S)N(C=C3C(=O)NC(=S)NC3=O)C2=O)cc1OC | % | 34
O=Nn1c2ccccc2c2cc([N+](=O)[O-])ccc21 | % | -6
CCN(CC)CC(O)c1cc(-c2ccc(Cl)cc2)nc2c(-c3ccccc3)cccc12 (stereo unspecified) | % | -1
O=c1ccc(N=Nc2ccccc2)ccc1O | % | 64
O=C1CSC(=S)N1Cc1ccc(Cl)cc1Cl | % | 27
CCC(c1ccc(O)cc1)C(CC)c1ccc(OCCN)cc1 (stereo unspecified) | % | -6
Cn1ncc2cc3c(Nc4ccc(Cl)cc4)cccc3nc21 | % | -4

====

Catalogue of growth inhibition values
Experiment: NCI Yeast Anticancer Drug Screen. Data for the wt2 strain (AID 169);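 note: 0% = growth of vehicle-treated yeast cultures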
Conditions: S. cerevisiae wt2 strain growth inhibition; at 100.0 µM; active compounds read high
The panel holds about 79,000 compounds, 15% with a hit somewhere; the sample as a whole holds those more often.

molecule | growth inhibition (%)
CCC(=O)Oc1ccc(/C=N/NC(N)=S)nc1 | 34
O=C(Nc1ccc2c(c1)Cc1c-2ccc([N+](=O)[O-])c1F)C(F)(F)F | 0
CCC(c1ccc(O)cc1)C(CC)c1ccc(OCCN)cc1 (configuration not stated) | 92
CC(=O)[O-].O=C([CH-]C(=O)c1ccccc1)c1ccccc1.O=C([CH-]C(=O)c1ccccc1)c1ccccc1.[Sm+3] | 98
CC(C)(C)c1ccc(O)c(C(c2ccc([N+](=O)[O-])cc2)c2cc(C(C)(C)C)ccc2O)c1 | 83
BrCc1ccccc1C(c1ccccc1)c1ccccc1 | 95
CCN(CC)CC(O)C1CCC(c2ccccc2)CC1 (configuration not stated) | 83
Nc1nc(N)c2c(n1)CCC(S(=O)(=O)c1ccc3ccccc3c1)C2 (configuration not stated) | 23
CC(C)(C)[OH+][O-].[O-]c1ccc(Cl)cc1C=Nc1ccc(Cl)cc1[O-].[O]=[V] | 30
CC[C@@]1(OC(=O)CN(C)C)C(=O)OCc2c1cc1n(c2=O)Cc2cc3c(N)cccc3nc2-1 | 32
O=C(Nc1cccc(C(F)(F)F)c1)Oc1ccc(Cl)cc1C(=O)c1ccccc1 | 98
CCOC(=O)Nc1ccc2c(c1)Cc1ccccc1-2 | 14
CC(=O)C1=C(O)C2(C)c3c(O)c(C)c(O)c(C(C)=O)c3OC2(Sc2ccccc2)CC1=O (configuration not stated) | 89
COc1ccc(N=N/C(=N\NC(=O)c2cc(Br)ccc2O)c2ccc(N(CCC#N)CCC#N)cc2OC)cc1 | 65
COc1ccc(N=Nc2ccc3oc(=O)c(C(=O)Nc4ccccc4)cc3c2)cc1 | 96
COc1ccc(SCc2cc(OC)ccc2OC)cc1 | 1
N#C/C(=C/N1C(=O)/C(=C/c2ccc([N+](=O)[O-])cc2)SC1=S)c1nc2ccccc2s1 | 75
CCOc1ccc(C(=O)CCC(=O)O)c(C)c1 | 16
CN(C)CCNc1cccc2sc3ccc(O)cc3c(=O)c12 | 4
O=C1C=CC(=O)N1c1ccc2c(c1)OCO2 | 100
COC(=O)c1ccc2c(c1)Cc1ccccc1-2 | 28
O=C1c2ccccc2C(=O)c2cc(S(=O)(=O)Nc3ccccc3)ccc21 | 8

====

Assay: NCI Yeast Anticancer Drug Screen. Data for the mlh1 strain (AID 171);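 note: 0% = growth of vehicle-treated control cultures of the same strain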
Conditions: S. cerevisiae mlh1 strain growth inhibition; at 33.0 µM; active compounds read high
This is part of a sample that, as a whole, favours compounds with a hit. Of some 79,000 tested, about 15% had one in any assay.
Lab note: compare growth inhibition against 90%. Equal or greater, write Y. Smaller, write N.

compound | category
O=[N+]([O-])c1cccc2nc3ccccc3c(NCCc3cccc[n+]3[O-])c12 | N
CCCCCCSc1nc(COC(=O)NC)c(COC(=O)NC)n1C | N
Cc1ccccc1NC(=O)Cc1csc(N/N=C2\NC(=O)/C(=C/c3cccc([N+](=O)[O-])c3)S2)n1 | N
COc1cc(N)ccc1Nc1c2ccccc2nc2ccccc12 | N
Cc1ccc(I)cc1N=C=S | Y
Cn1ncc2cc3c(Nc4ccc(Cl)cc4)cccc3nc21 | N
CN=C(N)N/N=C(\C)c1ccc2oc3ccc(/C(C)=N/NC(N)=NC)cc3c2c1 | Y
O=C(O)c1ccccc1.[Ag] | Y
CN(N=O)C(=O)N[C@@H](C=O)[C@@H](O)[C@H](O)[C@H](O)CO | N
CC1OC(OC2CCCc3c(O)c4c(c(O)c32)C(=O)c2ccccc2C4=O)CC(N)C1O (stereo unspecified) | Y

====

Test: NCI Yeast Anticancer Drug Screen. Data for the rad52 strain (AID 147);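 note: 0% = growth of vehicle-treated control cultures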
Conditions: S. cerevisiae rad52 mutant growth inhibition; at 1.2 µM; active compounds read high
This is part of a sample that, as a whole, favours compounds with a hit. Of some 79,000 tested, about 15% had one in any assay.

compound | growth inhibition, %
O=C1CSC(=S)N1Cc1ccc(Cl)cc1Cl | -4
O=Nn1c2ccccc2c2ccccc21 | -15
CC1=CC2C(C(C)C)CC1C1C(=O)OC(=O)C21 (stereo unspecified) | -12
C/C(=N\NC(=S)NC1CCCC1)c1ccccn1 | -5
CCCCCCCCN1C(=O)c2ccccc2C1=O | 0
CN(CC(=O)O)c1ccc(/C=C/c2ccnc3ccccc23)cc1 | -3
Cc1onc(-c2ccccc2Cl)c1C1=N/C(=C/c2cc(Cl)cc(Cl)c2O)C(=O)O1 | -36
O=C1OC2C(O)COC2(OCc2c[nH]c3ccccc23)C1O (stereo unspecified) (tested in a mixture with another compound) | -2
CCOP1(=O)C=C(Sc2ccc([N+](=O)[O-])cc2[N+](=O)[O-])C(C)(C)O1 (stereo unspecified) | 2
CCC(c1ccc(O)cc1)C(CC)c1ccc(OCCN)cc1 (stereo unspecified) | -5
CCCCCC#CCOC(=O)C(=[N+]=[N-])P(=O)(c1ccccc1)c1ccccc1 | 7

====

Experiment: NCI Yeast Anticancer Drug Screen. Data for the bub3 strain (AID 167)
Conditions: S. cerevisiae bub3 mutant strain, at 5.0 µM (retest, dose inferred, filed as 0.5)
Compounds without any hit were thinned out: in the full panel of roughly 79,000, 15% have a hit. Calls of active or inactive are those of the source. Cut-off read from the data, not from the text of the source: active = growth inhibition above about 70%; inactive = the rest.
Outcome codes: yes (active), no (inactive)

molecule | category
Oc1ccc(C=Nc2ccccc2O)cc1 | no
OC(CN1CCCCC1)c1cc(Cl)c(Cl)c(Cl)c1 (configuration not stated) | no
NC(=O)N1c2ccccc2C=Cc2ccccc21 | no
O=C(O)c1cccc2cccc(-c3c4ccc(=O)cc-4oc4cc(O)ccc34)c12 | yes
c1ccc(N2N=C3N(c4ccccc4)C2N3c2ccccc2)cc1 | no
Cc1nc2c(ncn2CCO)c(=O)[nH]1 | no
S=C1SCN(CCc2ccccc2)CN1CCc1ccccc1 | no

====

Experiment: NCI Yeast Anticancer Drug Screen. Data for the wt2 strain (AID 169);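 note: 0% = growth of vehicle-treated yeast cultures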
Details: S. cerevisiae wt2 strain growth inhibition; at 3.7 µM; active compounds read high
About 79,000 compounds went through this panel and 15% of them were active in at least one assay; those are over-represented in the sample as a whole.
Catalogue of growth inhibition values
parameter: growth inhibition (%)

molecule | measured-value
CC1=CCC(C(C)(C)c2ccc(O)cc2)CC1 (stereo unspecified) | -24
O=C(Nc1cccc(C(F)(F)F)c1)Oc1ccc(Cl)cc1C(=O)c1ccccc1 | 6
CN(CC(=O)O)c1ccc(/C=C/c2ccnc3ccccc23)cc1 | -4
COc1ccc(N)c2c1C(=O)c1ccccc1C2=O | -11
COc1ccc(N=N/C(=N\NC(=O)c2cc(Br)ccc2O)c2ccc(N(CCC#N)CCC#N)cc2OC)cc1 | -11
CCCCOC(=O)CSSCC(=O)OCCCC | -1
CCN(CC)N=Nc1c(C(N)=O)n[nH]c1C | 0
O=C1C(Cl)=C(Cl)C(Cl)(Cl)C(Cl)C1(Cl)Cl (stereo unspecified) | -6
O=C(/C=C\c1ccc([N+](=O)[O-])o1)Nc1ccc(Cl)cc1 | 87
CCOC(=O)Nc1ccc2c(c1)Cc1ccccc1-2 | 9
COc1ccc(/C=C(\NC(=O)c2ccccc2)C(=O)NN(C)c2ccnc3cc(Cl)ccc23)cc1OC | 4
